// reported enrichment ratio per item
B1: PhoQ; a variant is named by its letters at X, in order, P23837 (parent)
chain: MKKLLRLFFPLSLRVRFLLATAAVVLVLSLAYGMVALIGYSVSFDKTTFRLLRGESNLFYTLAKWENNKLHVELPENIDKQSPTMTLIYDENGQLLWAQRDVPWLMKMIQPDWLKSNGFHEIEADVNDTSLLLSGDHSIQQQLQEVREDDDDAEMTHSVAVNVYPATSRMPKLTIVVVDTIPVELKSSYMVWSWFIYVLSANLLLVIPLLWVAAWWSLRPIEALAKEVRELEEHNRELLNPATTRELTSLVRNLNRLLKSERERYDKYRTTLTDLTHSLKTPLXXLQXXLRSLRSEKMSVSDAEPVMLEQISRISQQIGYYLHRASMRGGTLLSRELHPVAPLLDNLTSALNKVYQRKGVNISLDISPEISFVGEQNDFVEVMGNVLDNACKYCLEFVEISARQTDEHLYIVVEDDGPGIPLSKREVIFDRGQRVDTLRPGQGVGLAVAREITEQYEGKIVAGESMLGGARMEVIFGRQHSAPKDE

- Variants of: B1
- test description: enrichment ratio after two sorts for PhoP signalling (ratio (wild type AVST 3.29)); higher = more functional
- settings: with PhoP (E. coli)
Whole data set: some 140,000 sequences, median “enrichment ratio after two sorts for PhoP signalling” near 0, cut for the highest 2% near 11. Shown is part of a subset that was picked to be rich in the highest values.
metric name: enrichment ratio

[[record]]
mutation_code = "LPRC"
reported_result = "≤ 0.25"

[[record]]
mutation_code = "EQHH"
reported_result = "≤ 0.25"

[[record]]
mutation_code = "EDSR"
reported_result = "≤ 0.25"

[[record]]
mutation_code = "GYMI"
reported_result = "≤ 0.25"

[[record]]
mutation_code = "FVAK"
reported_result = "≤ 0.25"

[[record]]
mutation_code = "NMVW"
reported_result = "≤ 0.25"

[[record]]
mutation_code = "GNVI"
reported_result = 14.7

[[record]]
mutation_code = "DYTW"
reported_result = "≤ 0.25"

[[record]]
mutation_code = "WDPT"
reported_result = "≤ 0.25"

[[record]]
mutation_code = "QVGH"
reported_result = 15.9

[[record]]
mutation_code = "ACNH"
reported_result = "≤ 0.25"

[[record]]
mutation_code = "GIMI"
reported_result = 25.7

[[record]]
mutation_code = "VHFI"
reported_result = "≤ 0.25"

[[record]]
mutation_code = "LWHD"
reported_result = "≤ 0.25"

[[record]]
mutation_code = "LKRS"
reported_result = "≤ 0.25"

[[record]]
mutation_code = "GTMI"
reported_result = "≤ 0.25"

[[record]]
mutation_code = "GWFA"
reported_result = "≤ 0.25"

[[record]]
mutation_code = "QVTH"
reported_result = "≤ 0.25"

[[record]]
mutation_code = "QVGP"
reported_result = "≤ 0.25"

[[record]]
mutation_code = "PCPR"
reported_result = "≤ 0.25"

[[record]]
mutation_code = "GIVI"
reported_result = 6.54

[[record]]
mutation_code = "KMPW"
reported_result = "≤ 0.25"


These entries and their values trace back to a collection of fitness landscapes (doi:10.1126/science.1257360).
